# assayedTarget: Retinoic acid receptor beta (Homo sapiens) (UniProt P10826)
# Sequence (P10826 whole entry): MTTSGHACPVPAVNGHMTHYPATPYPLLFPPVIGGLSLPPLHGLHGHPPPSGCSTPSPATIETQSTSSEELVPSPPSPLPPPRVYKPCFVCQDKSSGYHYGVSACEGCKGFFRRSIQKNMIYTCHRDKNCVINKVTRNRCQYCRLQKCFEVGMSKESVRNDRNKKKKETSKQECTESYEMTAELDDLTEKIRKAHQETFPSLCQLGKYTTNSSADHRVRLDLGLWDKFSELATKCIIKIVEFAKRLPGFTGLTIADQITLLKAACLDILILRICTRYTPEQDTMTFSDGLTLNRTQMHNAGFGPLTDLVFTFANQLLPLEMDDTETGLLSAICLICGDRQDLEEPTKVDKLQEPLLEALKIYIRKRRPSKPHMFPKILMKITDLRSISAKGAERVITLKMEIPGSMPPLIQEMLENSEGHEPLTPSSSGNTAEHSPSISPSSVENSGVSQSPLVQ
# protocolDescription: Maximum retinoic acid receptor (RAR)-beta transactivation activity relative to retinoic acid at 10e-6 M
resultType: Max (%)
// note: answer is a bare numeric in %

For orientation, consider the following solved cases.
                                   compound  unitslabel  numericresult
0  COc1c(C(=O)c2ccc3c(c2)C(C)(C)CCC3(C)C)ccc2cc(C(=O)O)ccc12           %              0
1  CC1(C)CCC(C)(C)c2cc(Oc3ccc4cc(C(=O)O)ccc4c3)ccc21           %            120
2  CC1(C)CCC(C)(C)c2cc(S(=O)(=O)/C=C/c3ccc(C(=O)O)cc3)ccc21           %             35
3  CC1(C)CCC(C)(C)c2cc(C(=O)c3ccc4cc(C(=O)O)ccc4c3)c(O)cc21           %             76

From here, focus on the item given below.
Requested field: Max. Item: CC1(C)CCC(C)(C)c2c1ccc(C(O)c1ccc3cc(C(=O)O)ccc3c1)c2F (stereo not given) 74

----------
Measured EC50 ratio values are reported for all entries that follow.
# assayedTarget: Retinoic acid receptor beta (Homo sapiens) (UniProt P10826)
# protocolDescription: Transactivation activity at retinoic acid receptor beta.
Respond numerically, and do not add a unit to the figure.

>>> df
                                   compound                             assayedtarget  numericresult
0  CC1(C)CCC(C)(C)c2cc(C(=O)c3ccc4cc(C(=O)O)ccc4c3)c(O)cc21  Retinoic acid receptor beta (Homo sapiens) (UniProt P10826)            7.5
1  CC1(C)CCC(C)(C)c2cc([S+]([O-])/C=C/c3ccc(C(=O)O)cc3)ccc21 (centres undefined)  Retinoic acid receptor beta (Homo sapiens) (UniProt P10826)             40
2  Cc1cc2c(cc1C(O)c1ccc3cc(C(=O)O)ccc3c1)C(C)(C)CCC2(C)C (centres undefined)  Retinoic acid receptor beta (Homo sapiens) (UniProt P10826)            100

Requested field: EC50 ratio. Item: CC1(C)CCC(C)(C)c2c(F)cc(C(=O)c3ccc4cc(C(=O)O)ccc4c3)cc21 4

Requested field: EC50 ratio. Item: Cc1cc2c(cc1C(=O)c1ccc3cc(C(=O)O)ccc3c1)C(C)(C)CCC2(C)C 25

Requested field: EC50 ratio. Item: CC1(C)CCC(C)(C)c2cc(Oc3ccc4cc(C(=O)O)ccc4c3)ccc21 20

Requested field: EC50 ratio. Item: CC1(C)CCC(C)(C)c2cc(C(=O)/C=C/c3ccc(C(=O)O)cc3)ccc21 1.2

Requested field: EC50 ratio. Item: CC1(C)CCC(C)(C)c2cc(C(=O)c3ccc4cc(C(=O)O)ccc4c3)c(F)cc21 15

Requested field: EC50 ratio. Item: CC1(C)CCC(C)(C)c2cc(Nc3ccc4cc(C(=O)O)ccc4c3)ccc21 17

----------
# assayedTarget: Retinoic acid receptor alpha (Homo sapiens)
# protocolDescription: Transcriptional activation activity against retinoic acid receptor RAR alpha
Please note: EC50 ratio exactly at 20 is Condition not met. Only values below 20 get Condition met.

Solved cases below.
>>> print(df.to_string())
                                   compound   qualitativelabel
0  CC1(C)CCC(C)(C)c2cc([S+]([O-])/C=C/c3ccc(C(=O)O)cc3)ccc21 (configuration not stated)  Condition not met
1  CC1(C)CCC(C)(C)c2c(F)cc(C(=O)c3ccc4cc(C(=O)O)ccc4c3)cc21      Condition met
2  CC1(C)CCC(C)(C)c2cc(S/C=C/c3ccc(C(=O)O)cc3)ccc21      Condition met

Hello, is EC50 ratio of the following compound strictly smaller than 20? CC1(C)CCC(C)(C)c2cc(C(=O)c3ccc4cc(C(=O)O)ccc4c3)c(F)cc21 Condition not met

Hello, is EC50 ratio of the following compound strictly smaller than 20? CC1(C)CCC(C)(C)c2cc(C(=O)/C=C/c3ccc(C(=O)O)cc3)ccc21 Condition met

Hello, is EC50 ratio of the following compound strictly smaller than 20? CC1(C)CCC(C)(C)c2c1cc(O)c(C(=O)c1ccc3cc(C(=O)O)ccc3c1)c2F Condition not met

Hello, is EC50 ratio of the following compound strictly smaller than 20? COc1cc2c(cc1C(=O)c1ccc3cc(C(=O)O)ccc3c1)C(C)(C)CCC2(C)C Condition met

Hello, is EC50 ratio of the following compound strictly smaller than 20? CC1(C)CCC(C)(C)c2cc(Oc3ccc4cc(C(=O)O)ccc4c3)ccc21 Condition not met

----------
# assayedTarget: Retinoic acid receptor beta (Homo sapiens) (UniProt P10826)
# protocolDescription: Maximum retinoic acid receptor (RAR)-beta transactivation activity relative to retinoic acid at 10e-6 M
resultType: Max

>>> print(df.to_string())
                                   molecule  resulttype  result
0  CC1(C)CCC(C)(C)c2cc(C(=O)c3ccc4cc(C(=O)O)ccc4c3)c(F)cc21         Max     81%
1  CC1(C)CCC(C)(C)c2cc(C(O)c3ccc4cc(C(=O)O)ccc4c3)ccc21 (centres undefined)         Max     77%

Requested field: Max. Item: COc1cc2c(cc1C(=O)c1ccc3cc(C(=O)O)ccc3c1)C(C)(C)CCC2(C)C 61%

Requested field: Max. Item: CC1(C)CCC(C)(C)c2c(F)cc(C(=O)c3ccc4cc(C(=O)O)ccc4c3)cc21 81%

----------
# assayedTarget: Retinoic acid receptor beta (Homo sapiens) (UniProt P10826)
# protocolDescription: Transactivation activity at retinoic acid receptor beta.
resultType: EC50 ratio

In [3]: df
Out[3]:
                                   molecule                             assayedtarget  resulttype  result
0  COc1cc2c(cc1C(=O)c1ccc3cc(C(=O)O)ccc3c1)C(C)(C)CCC2(C)C  Retinoic acid receptor beta (Homo sapiens) (UniProt P10826)  EC50 ratio      14
1  CC1(C)CCC(C)(C)c2c1ccc(C(O)c1ccc3cc(C(=O)O)ccc3c1)c2F (centres undefined)  Retinoic acid receptor beta (Homo sapiens) (UniProt P10826)  EC50 ratio     133
2  CC1(C)CCC(C)(C)c2cc(Sc3ccc4cc(C(=O)O)ccc4c3)ccc21  Retinoic acid receptor beta (Homo sapiens) (UniProt P10826)  EC50 ratio      10
3  CC1(C)CCC(C)(C)c2cc([S+]([O-])c3ccc4cc(C(=O)O)ccc4c3)ccc21 (centres undefined)  Retinoic acid receptor beta (Homo sapiens) (UniProt P10826)  EC50 ratio     167
4  CC1(C)CCC(C)(C)c2cc(S/C=C/c3ccc(C(=O)O)cc3)ccc21  Retinoic acid receptor beta (Homo sapiens) (UniProt P10826)  EC50 ratio     0.8
5  CC1(C)CCC(C)(C)c2cc(S(=O)(=O)/C=C/c3ccc(C(=O)O)cc3)ccc21  Retinoic acid receptor beta (Homo sapiens) (UniProt P10826)  EC50 ratio     200
6  CC1(C)CCC(C)(C)c2c1cc(O)c(C(=O)c1ccc3cc(C(=O)O)ccc3c1)c2F  Retinoic acid receptor beta (Homo sapiens) (UniProt P10826)  EC50 ratio     6.7
7  CC1(C)CCC(C)(C)c2cc(S(=O)(=O)c3ccc4cc(C(=O)O)ccc4c3)ccc21  Retinoic acid receptor beta (Homo sapiens) (UniProt P10826)  EC50 ratio     133

From here, focus on the item given below.
Requested field: EC50 ratio. Item: CC1(C)CCC(C)(C)c2cc(C(O)c3ccc4cc(C(=O)O)ccc4c3)c(F)cc21 (centres undefined) 133

----------
# assayedTarget: Retinoic acid receptor alpha (Homo sapiens)
# Sequence (whole entry): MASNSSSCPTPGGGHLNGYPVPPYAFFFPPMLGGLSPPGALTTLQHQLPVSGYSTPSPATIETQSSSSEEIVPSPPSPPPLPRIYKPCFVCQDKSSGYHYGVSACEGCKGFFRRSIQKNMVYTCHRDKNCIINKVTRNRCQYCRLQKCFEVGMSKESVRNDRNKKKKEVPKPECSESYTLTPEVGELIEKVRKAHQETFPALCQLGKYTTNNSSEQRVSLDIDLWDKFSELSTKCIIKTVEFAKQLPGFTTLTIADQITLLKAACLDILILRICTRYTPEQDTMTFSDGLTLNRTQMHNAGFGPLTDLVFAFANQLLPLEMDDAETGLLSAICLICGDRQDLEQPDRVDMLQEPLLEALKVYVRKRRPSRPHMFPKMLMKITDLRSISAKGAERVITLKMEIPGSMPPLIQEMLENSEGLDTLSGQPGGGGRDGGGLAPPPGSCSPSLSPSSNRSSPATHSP
# protocolDescription: Maximum retinoic acid receptor (RAR)-alpha transactivation activity relative to retinoic acid at 10e-6 M
Measured Max values are reported for all entries that follow.
Dear colleague, please send the value followed by its unit.

                                   compound  result
0  CC1(C)CCC(C)(C)c2cc(S/C=C/c3ccc(C(=O)O)cc3)ccc21    118%

Hello, I am looking for reported Max with Retinoic acid receptor alpha (Homo sapiens) for CC1(C)CCC(C)(C)c2cc(C(=O)c3ccc4cc(C(=O)O)ccc4c3O)ccc21 . Could you help? 0%
